Measured target: T1, human CD137-human Fc chimeric protein (Acro Biosystems cat no. 41B-H5258) (human, UniProt Q07011 24-186)
T1 construct: Bought protein; The Octet Protein G and Biacore experiments name no catalogue number; also called human CD137Fc recombinant protein; human CD137-Fc recombinant protein; not shown: human IgG1 Fc tag
Experiment: BLI (Octet RED384), CD137-Fc on Protein G sensors, 1:1 model
Reported metric: koff (s⁻¹)

Binder: Humabody VH 1.81 (VHH, human single VH domain) VHH: QVQLVESGGGLVQPGGSLRLSCAATGFTLSNYWMNWVRQAPGKGLEWVANINQDGSERYYVDSVEGRFTISRDNAKSSLYLQMSNLRAEDTAVYFCARGGEGYGVDHYGLDVSGQGTTVTVSS
Unit of measurement: s⁻¹
koff: 0.000171

A. Humabody VH 2.20 (VHH, human single VH domain) VHH: EVQLVESGGGLVKPGGSLRLSCAASGFTFSDYYMSWIRQAPGKGLEWVSHISSSGSTIDYADSVKGRFTISRDNAKNSLYLQMNSLRAEDTAVYYCAREDPRMPGTFDFDNWGQGTLVTVSS
B. Humabody VH 1.71 (VHH, human single VH domain) VHH: EVQLVESGGGLVQPGGSLRLSCAASGFTFGNYWMIWVRQAPGKELEWLANINQNGSERYYVDSVQGRFTISRDNAKNSLYLQMNSLRAEDTAVYYCARGGADYSNSHYGMDVSGQGTTVTVSS
C. Humabody VH 1.78 (VHH, human single VH domain) VH: QVQLVESGGGLVQPGGSLRLSCAATGFTLSNYWMNWVRQAPGKGLEWVANINQDGSERYYVDSVKGRFTISRDNAKNSLYLQMSSLRAEDTAVYFCARGGEGYGVDHYGLDVSGQGTTVTVSSHHHHHH
Order by koff, ascending. List each label, following the requested order.
B, C, A
